- assay: Selectivity index, ratio of CC50 for Cytotoxicity in human Huh-7.5.1 cells to EC50 for Antiviral activity against hepatitis A virus genotype 1b infected in human Huh-7.5.1 cells
- Type: toxicity, cell-based
- assay-conditions: read-out: Ratio CC50/EC50
Reported selectivity ratio by item:
property: selectivity ratio

INSERT INTO assay_data (molecule, property, recorded_number) VALUES
  ('COc1cc(OCC(=O)N/N=C/c2ccc(Cl)cc2)cc2c1CCC(c1cc(OC)c(OC)c(OC)c1)O2 (centres undefined)', 'selectivity ratio', 16.3),
  ('COc1cc(OCC(=O)N/N=C/c2ccc(C)cc2)cc2c1CCC(c1cc(OC)c(OC)c(OC)c1)O2 (centres undefined)', 'selectivity ratio', 11.1),
  ('COc1cc(OCC(=O)N/N=C/c2ccc(Br)cc2)cc2c1CCC(c1cc(OC)c(OC)c(OC)c1)O2 (centres undefined)', 'selectivity ratio', 25),
  ('COc1cc(OCC(=O)N/N=C/c2ccc(Cl)s2)cc2c1CCC(c1cc(OC)c(OC)c(OC)c1)O2 (centres undefined)', 'selectivity ratio', 15.7);

Source of measurements: ChEMBL document CHEMBL5113410
